Task for the reader: assign each of the following compounds its reported pIC50.
- SYSTEM_TESTED: human recombinant CDC7 (Homo sapiens, UniProt O00311)
- Sequence (O00311 whole entry): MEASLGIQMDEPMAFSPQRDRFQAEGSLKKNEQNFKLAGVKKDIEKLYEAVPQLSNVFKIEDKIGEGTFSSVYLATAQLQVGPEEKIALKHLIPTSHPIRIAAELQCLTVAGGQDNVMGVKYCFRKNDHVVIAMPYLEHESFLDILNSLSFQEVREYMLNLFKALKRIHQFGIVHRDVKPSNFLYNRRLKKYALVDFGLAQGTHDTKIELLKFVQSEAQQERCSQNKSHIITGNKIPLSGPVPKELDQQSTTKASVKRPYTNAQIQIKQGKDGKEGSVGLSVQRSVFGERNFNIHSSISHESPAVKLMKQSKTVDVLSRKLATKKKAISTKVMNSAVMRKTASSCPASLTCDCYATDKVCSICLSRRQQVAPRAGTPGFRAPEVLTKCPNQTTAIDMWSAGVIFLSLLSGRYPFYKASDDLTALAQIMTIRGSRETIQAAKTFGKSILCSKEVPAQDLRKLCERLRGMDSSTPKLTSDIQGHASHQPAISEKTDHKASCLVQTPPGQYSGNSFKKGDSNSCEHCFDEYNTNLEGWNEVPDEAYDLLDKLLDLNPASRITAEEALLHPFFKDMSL
- Sequence (Q9UBU7 whole entry partner): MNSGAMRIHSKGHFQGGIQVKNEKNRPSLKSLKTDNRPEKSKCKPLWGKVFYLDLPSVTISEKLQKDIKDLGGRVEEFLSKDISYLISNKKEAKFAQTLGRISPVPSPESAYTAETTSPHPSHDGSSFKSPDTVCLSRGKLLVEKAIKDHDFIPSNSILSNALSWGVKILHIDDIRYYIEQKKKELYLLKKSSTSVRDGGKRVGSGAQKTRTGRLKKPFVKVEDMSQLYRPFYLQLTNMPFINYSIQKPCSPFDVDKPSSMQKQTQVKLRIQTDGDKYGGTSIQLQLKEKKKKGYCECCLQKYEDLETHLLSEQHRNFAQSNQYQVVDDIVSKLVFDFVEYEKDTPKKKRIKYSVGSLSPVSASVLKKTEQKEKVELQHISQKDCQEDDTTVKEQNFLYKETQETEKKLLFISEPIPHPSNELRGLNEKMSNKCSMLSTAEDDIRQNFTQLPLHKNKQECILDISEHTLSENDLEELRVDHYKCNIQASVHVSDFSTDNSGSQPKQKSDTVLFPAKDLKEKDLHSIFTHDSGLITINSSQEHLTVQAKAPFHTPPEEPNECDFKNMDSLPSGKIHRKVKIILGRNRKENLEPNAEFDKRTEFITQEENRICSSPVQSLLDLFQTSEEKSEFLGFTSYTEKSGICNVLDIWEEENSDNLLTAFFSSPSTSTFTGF
- ASSAY_DETAILS: CDC7 inhibition measurement (ADP-Glo technology)
- TEST_CONDITIONS: ATP 10 μM, 60 min at room temperature; read-out: CDC7 ADP-Glo ™ CI50
- Protocol: The method used is a non-radioactive enzyme inhibition assay using human recombinant CDC7. It is based on luminometric quantification of inhibition using the ADP-Glo™ Kinase Kit. […] CDC7 enzyme inhibition studies were conducted using the promega kit: ADP-Glo™ Kinase Assay+CDC7/DBF4 Kinase Enzyme System (Catalogue No. V5089). […] Finally, the luminescence (integration time of 0.5-1 sec) was measured using a POLARstar Optima multimode reader polarimeter. […]
Numbers only, as −log10 of the molar value.

Observe how each entry below is paired with its result.
Name the recorded pIC50 for Brc1ccc(CSc2[nH]cnc3ncnc2-3)cc1 [Compound 12, 6-((4-bromobenzyl)thio)-9H-purine] .
5.04

Name the recorded pIC50 for c1ccc(CSc2ncnc3[nH]cnc23)cc1 [Compound 1, 6-(benzylthio)-9H-purine] .
5.17

Name the recorded pIC50 for N#Cc1cccc(CSc2ncnc3[nH]cnc23)c1 [Compound 3] .
5.08

Name the recorded pIC50 for Ic1cccc(CSc2ncnc3[nH]cnc23)c1 [Compound 9, 6-((3-Iodobenzyl)thio)-9H-purine] .
5.48

Moving on to the next compound.
Name the recorded pIC50 for FC(F)(F)c1ccccc1CSc1ncnc2[nH]cnc12 [Compound 4] .
5.01
